Taken from ChEMBL document CHEMBL4033641.

- TARGET_OF_ASSAY: DNMT3B-DNMT3L complex (Homo sapiens) (UniProt Q9UBC3+Q9UJW3)
- Sequence (Q9UJW3 whole entry, looked up, other chains not shown): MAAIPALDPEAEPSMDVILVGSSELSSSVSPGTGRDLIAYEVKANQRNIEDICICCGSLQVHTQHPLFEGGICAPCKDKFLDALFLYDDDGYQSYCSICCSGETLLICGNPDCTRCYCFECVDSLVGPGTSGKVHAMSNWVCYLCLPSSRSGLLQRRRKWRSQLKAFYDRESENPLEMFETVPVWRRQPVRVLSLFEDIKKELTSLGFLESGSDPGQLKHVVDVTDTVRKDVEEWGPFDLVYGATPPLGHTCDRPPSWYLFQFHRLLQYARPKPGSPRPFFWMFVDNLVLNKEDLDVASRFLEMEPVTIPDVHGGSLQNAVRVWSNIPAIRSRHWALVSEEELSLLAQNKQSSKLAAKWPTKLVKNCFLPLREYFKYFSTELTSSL
- ASSAY_INFO: Inhibition of DNMT3B/3L (unknown origin) at 100 uM using biotinylated DNA oligonucleotides as substrate preincubated for 15 mins followed by substrate/[3H]-SAM addition measured after 4 hrs by liquid scintillation counting analysis
- Type: protein-complex assay
ENDPOINT: inhibition (%)
Give bare numbers, in %.

Previously resolved entries follow.
1. COc1cc(C(=O)NCCc2ccc(/C=C/C(=O)NO)cc2)ccc1O = 15.8
2. O=C(/C=C/c1ccc(CCNC(=O)c2c[nH]c3ncccc23)cc1)NO = 7.23
3. COc1ccc(Cl)cc1C(=O)NCCc1ccc(CCC(=O)NO)cc1 = 8.26

Field: next molecule
Enquiry: Give inhibition for the following molecule: COc1ccc(Cl)cc1C(=O)NCCc1ccc(CCC(=O)O)cc1
Return: 6.11

---

- Tested on: K562
- ASSAY_INFO: Antiproliferative activity against human K562 cells after 72 hrs by MTT assay
- Format: functional, cell-based
- PARTICULARS: K562, 72 h
Assignment: determine reported IC50 for the given compounds.
Answers are plain numbers, in µM.

Answered cases to consult:
1) COc1ccc(Cl)cc1C(=O)NCCc1ccc(/C=C/C(=O)NO)cc1 = 2.75
2) O=C(/C=C/c1ccc(CCNC(=O)c2ccc3c(c2)OCO3)cc1)NO = 1.12
3) O=C(/C=C/c1ccc(CCNC(=O)c2ccc3ncccc3c2)cc1)NO = 3.16
4) O=C(/C=C/c1ccc(CCNC(=O)c2ccc3[nH]cnc3c2)cc1)NO = 31.7

Hi there! I need IC50 for each item below, if you can.
1. COc1ccc(Cl)cc1C(=O)NCCc1cccc(/C=C/C(=O)NO)c1
2. O=C(/C=C/c1ccc(CCNC(=O)c2c[nH]c3ncccc23)cc1)NO
3. Cc1cc(Nc2ccc(NC(=O)c3ccc(Nc4ccnc5ccccc45)cc3)cc2)nc(N)n1

Return:
[3.65, 17.9, 1.16]

---

- Test system: K562
- ASSAY_INFO: Antiproliferative activity against human K562 cells after 72 hrs by MTT assay
- Type: functional, cell-based
- PARTICULARS: K562, 72 h
I'd appreciate it if you could supply IC50 values for the items below.
Answers are plain numbers, in µM.

Examples with their reported IC50 follow.
1. O=C(/C=C/c1ccc(CCNC(=O)c2cncc(F)c2)cc1)NO = 7.06
2. O=C(/C=C/c1ccc(CCNC(=O)c2ccc3c(c2)OCCO3)cc1)NO = 1.78
3. O=C(/C=C/c1ccc(CCNC(=O)c2cc(C(F)(F)F)ccc2Cl)cc1)NO = 2.85

# map each molecule to its IC50
1. COc1ccc(Cl)cc1C(=O)NCCc1ccc(CCC(=O)NO)cc1
2. COc1cc(C(=O)NCCc2ccc(/C=C/C(=O)NO)cc2)ccc1O

Return:
1. 6.23
2. 5.18
